# Tested on: Human STING
# EXPERIMENT_NOTES: STING reporter assay (luciferase) in THP1-Dual KO-IFNAR2 cells activated with 2'3'cGAMP
# Format: cell-based
# CONDITION_CONTEXT: 15 μM 2'3'cGAMP, 24h, class symbols
pIC50: −log10 of the molar value.
pIC50 for assorted molecules
ASSAY_METRIC: pIC50

[[record]]
molecule = "Cc1ccccc1S(N)(=O)=Nc1c[nH]c2ccccc12 (racemic) [Compound 110b]"
assay_metric = "pIC50"
result = "5.30 to 6.00"

[[record]]
molecule = "Cc1ccc(S(N)(=O)=Nc2c[nH]c3ccccc23)cc1 (racemic) [Compound 111a]"
assay_metric = "pIC50"
result = "5.30 to 6.00"

[[record]]
molecule = "NS(=O)(=Nc1c[nH]c2cc(F)c(F)cc12)c1ccc(C(F)(F)F)cc1 (racemic) [Compound 2a]"
assay_metric = "pIC50"
result = "6.00 to 6.70"

[[record]]
molecule = "NS(=O)(=Nc1c[nH]c2cc(F)c(F)cc12)c1ccc(C(F)(F)F)cc1 (racemic) [Compound 2b]"
assay_metric = "pIC50"
result = "5.30 to 6.00"

[[record]]
molecule = "Cc1ccc(S(N)(=O)=Nc2c[nH]c3ccccc23)cc1 (racemic) [Compound 111b]"
assay_metric = "pIC50"
result = "4.00 to 5.30"

[[record]]
molecule = "Cc1ccccc1S(N)(=O)=Nc1c[nH]c2ccccc12 (racemic) [Compound 110a]"
assay_metric = "pIC50"
result = "4.00 to 5.30"

